Target: Sialic acid-binding Ig-like lectin 9 (Homo sapiens) (UniProt Q9Y336)
Sequence (Q9Y336 whole entry): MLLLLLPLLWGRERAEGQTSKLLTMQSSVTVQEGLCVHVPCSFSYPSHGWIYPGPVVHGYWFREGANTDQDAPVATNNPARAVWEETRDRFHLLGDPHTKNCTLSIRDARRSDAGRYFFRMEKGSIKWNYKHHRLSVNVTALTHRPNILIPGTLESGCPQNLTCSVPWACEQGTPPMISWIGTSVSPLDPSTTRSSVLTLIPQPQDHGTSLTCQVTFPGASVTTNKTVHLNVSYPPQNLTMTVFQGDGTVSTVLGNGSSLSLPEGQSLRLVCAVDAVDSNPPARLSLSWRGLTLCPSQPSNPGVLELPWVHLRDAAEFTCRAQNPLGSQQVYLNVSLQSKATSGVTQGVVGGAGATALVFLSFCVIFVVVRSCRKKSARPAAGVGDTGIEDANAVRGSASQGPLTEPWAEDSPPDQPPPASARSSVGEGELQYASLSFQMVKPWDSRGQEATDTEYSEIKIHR
Assay: Hs-Siglec9 ALPHAscreen SOP 20170721
Design: scale not given: direction of the effect not stated beside the values
Settings: 10 µM
Recorded Percent Effect by entry
observable: Percent Effect (%)

>>> print(df.to_string())
                                    molecule  readoutnumber
 0  COc1ccc(OCC(=O)NC(C)c2ccc(F)cc2)c(C(=O)O)c1 (stereo unspecified)           2.91
 1  O=C(Cc1ccccn1)N1CCc2nc(-c3cnccn3)nc(O)c2C1          -3.28
 2  CCc1nnc2n1CCN(C(=O)c1cc3cc(F)ccc3[nH]1)C2           11.1
 3  O=C(CSC1=NS(=O)(=O)c2cc(F)ccc2N1)Nc1cccc(Cl)c1         -0.207
 4  N#Cc1cn(C2CC2)c(=O)n(CC(O)c2ccccc2F)c1=O (stereo unspecified)           7.51
 5  Cc1cc(C)n(CC2CCCCN2C(=O)c2cnn(C)c2)n1 (stereo unspecified)           1.34
 6     COc1ccc(NC(C)=O)c(N2CCN(C(C)=O)CC2)n1          -3.66
 7  CC(O)CN1CCC(CNCc2c[nH]nc2C(C)(C)C)CC1 (stereo unspecified)           1.39
 8  CN(C)c1cc(CNC(=O)Nc2ccc(S(C)(=O)=O)nc2)ccn1          -5.84
 9  CN1CC(=O)N(c2cnn(C)c2)CC12CCN(C(=O)c1ccsc1)C2 (stereo unspecified)           3.75
10  COc1ccc(F)cc1S(=O)(=O)NCC(c1cccn1C)N(C)C (stereo unspecified)          -2.56
